The following compounds are shown together with reported viability values.
test: growth suppression of beta-catenin knockout HCT116, pilot screen, human colon tumor cells (AID 823); details: CellTiter-Glo, 60 h, at 10 µM, hits give low values;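 also: 0% = wells killed by 20 µM Hyamine and 100% = untreated DMSO cell wells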
Records with an inconclusive call do not appear.
The reply should be a number in %, with the unit left off.

[ask] I have this compound here, CC1CCN(C(=O)c2ccc(NC(=O)C3CCCO3)cc2)CC1 (configuration not stated) , and I need its recorded viability.
[reply] 96.4

[ask] Which viability is listed for CCN(CCCNC(=O)CN1C(=O)COc2ccccc21)c1ccccc1 ?
[reply] 95.9

[ask] Would you mind telling me what viability value was observed for COc1ccc(C2C(C(=O)NCc3ccccn3)c3ccccc3C(=O)N2C)cc1OC (configuration not stated) ?
[reply] 101

[ask] # viability lookup, item O=C(C1CCN(S(=O)(=O)c2cccc3cccnc23)CC1)N1CCN(c2ccc(Cl)cc2)CC1
[reply] 31.1

[ask] Which viability is reported for this compound? Cn1nc(-c2ccc(Cl)cc2)c2cc(C(=O)NC3CC3)sc21
[reply] 83.6

[ask] Would you mind telling me what viability value was observed for CCNc1nc2c(c(=O)[nH]c(=O)n2C)n1Cc1ccc(F)cc1 ?
[reply] 99

[ask] Request the reported viability associated with CCOC(=O)c1ccc(CSc2n[nH]c(C)n2)o1
[reply] 97.7

[ask] Item under review: Cn1c(C(=O)N2CCN(Cc3ccccc3)CC2)cc2c(=O)n(C)c3ccccc3c21 . Reported viability?
[reply] 74.8

[ask] Record request: viability value, item CC1CC(C)CN(C(=O)CSc2nnc(-c3ccc(F)cc3)o2)C1 (configuration not stated)
[reply] 94.5

[ask] Any idea what its viability is? The compound is Cc1ccc(C)c(N2CCN(C(=O)C3CCCN(S(=O)(=O)c4cnc[nH]4)C3)CC2)c1 (configuration not stated)
[reply] 94.9

[ask] # query: viability of entry CCOC(=O)N1CCN(C(=O)c2ccc3c(SCC(=O)O)c4c(nc3c2)CCC4)CC1
[reply] 102

[ask] Would you mind telling me what viability value was observed for Cc1nnc(SCC(=O)Nc2ccc3c(c2)COC3=O)n1-c1ccccc1 ?
[reply] 98.8
